- assayOverview: Toxicity against human CEMx174 5.25M7 cells
- Format: cell-based
observedProperty: CC50 (µM)
Answers are plain numbers, in µM.

(Q) Given the entry Cc1ccc(C)n1-c1ccc(C(=O)O)c(O)c1 , report its measured CC50.
(A) 2490

---

- System: Human immunodeficiency virus 1
- assayOverview: Antiviral activity against HIV1
- Type: functional, organism-based
Kindly state pEC50 for each of the entries shown.
Numbers only, as −log10 of the molar value.

Recorded results for 3 compounds are shown here.
(Q) Given the entry C[C@@H]1CN(C(=O)c2ccccc2)CCN1C(=O)C(=O)c1c[nH]c2ncccc12 , report its measured pEC50.
(A) 8.77

(Q) Given the entry C[C@@H]1CN(C(=O)c2ccccc2)CCN1C(=O)C(=O)c1c[nH]c2cccnc12 , report its measured pEC50.
(A) 8.80

(Q) Given the entry C[C@@H]1CN(C(=O)c2ccccc2)CCN1C(=O)C(=O)c1c[nH]c2cnccc12 , report its measured pEC50.
(A) 7.67

Moving on to the next compound.
(Q) Given the entry CN1N=C(N)c2cn([C@H]3CC[C@@H](CO)O3)c3ncnc1c23 , report its measured pEC50.
(A) 4.68

---

- targetDesc: Human immunodeficiency virus type 1 reverse transcriptase (Human immunodeficiency virus 1, UniProt Q72547)
observedProperty: pIC50
Numbers only, as −log10 of the molar value.

Recorded results for 5 molecules are shown here.
(Q) Given the entry C=CCN1C(=O)c2cccn2S(=O)(=O)c2ccccc21 , report its measured pIC50.
(A) 5.40

(Q) Given the entry O=C1Nc2ccc(Cl)cc2S(=O)(=O)n2cccc21 , report its measured pIC50.
(A) 6.15

(Q) Given the entry CCC1(CC=C(C)C)Sc2ccccc2-n2cccc2C1=O (stereo unspecified) , report its measured pIC50.
(A) 5.87

(Q) Given the entry CN1C(=O)c2cccn2S(=O)(=O)c2cc(Cl)ccc21 , report its measured pIC50.
(A) 6.30

(Q) Given the entry C/C=C/CN1C(=O)c2cccn2S(=O)(=O)c2cc(Cl)ccc21 , report its measured pIC50.
(A) 5.51

Okay, here is my list. What is pIC50 for each of these?
1. CC(C)N1C(=O)c2cccn2S(=O)(=O)c2ccccc21
2. CC1(c2ccccc2)Sc2ccccc2-n2cccc2C1=O (stereo unspecified)
3. CN1C(=O)c2cccn2S(=O)(=O)c2ccccc21
4. CCC1(c2ccc3ccccc3c2)Sc2ccccc2-n2cccc2C1=O (stereo unspecified)
5. CCN1C(=O)c2cccn2S(=O)(=O)c2ccccc21
6. CCN1C(=O)c2cccn2S(=O)(=O)c2ccc(Cl)cc21

(A)
1. 5.40
2. 6.46
3. 5.40
4. 6.07
5. 5.40
6. 5.40

---

- assayOverview: Cytotoxicity against human C8166 cells
- Format: cell-based
- conditionContext: human, C8166 cells
Kindly state CC50 for each of the entries shown.
Give bare numbers, in µM.

Recorded results for 5 compounds are shown here.
(Q) Given the entry CCOC(=O)c1ncc(O)c2c1C(=O)N(CCc1ccc(OC)c(OC)c1)C2=O , report its measured CC50.
(A) 33.5

(Q) Given the entry CCOC(=O)c1ncc(O)c2c1C(=O)N(CCc1ccc(F)cc1)C2=O , report its measured CC50.
(A) 13.2

(Q) Given the entry CCOC(=O)c1ncc(O)c2c1C(=O)N(CCc1c[nH]c3ccccc13)C2=O , report its measured CC50.
(A) 26.7

(Q) Given the entry CCOC(=O)c1ncc(O)c2c1C(=O)N(CC(c1ccccc1)c1ccccc1)C2=O , report its measured CC50.
(A) 25.2

(Q) Given the entry O=C(NCc1ccc(F)cc1)c1ncc(O)c2c1C(=O)N(CCc1ccc(F)cc1)C2=O , report its measured CC50.
(A) 30.8

Others:
(Q) Given the entry CCOC(=O)c1ncc(O)c2c1C(=O)N(CCc1ccc(C)cc1)C2=O , report its measured CC50.
(A) 15.5
